Values from patent US20220144922A1

Reported values of pKd for individual entries
Biological target: T1, prefusion-stabilized RSV F ectodomain (DS-Cav1), subtype B (respiratory syncytial virus subtype B)
T1 construct: extracellular domain; also called Prefusion subtype B
Assay: BLI, IgG on sensor
pKd: −log10 of the molar value.

binder	pKd
ADI-15623 (antibody, V domains shown, IgG; also called Antibody Number 188) VH: EVQLLESGGGLVKPGGSLRLSCAASGFTIGGYNMFWVRQPPGKGLEWVSSITAGSSYLNYADSVKGRFIVSRDNAKNSLYLQMNSLRAEDTAVYFCARAPLLPAMMDLWGQGTTVTVSS VL: QSVVTQPPSVSGAPGQRVTISCTGSSSNIGAGYDVHWYQQLPGTAPKLLIYTNNNRPSGVPDRFSGSKSGTSASLAITGLQAEDEADYYCQSYDRSLNGYVFGTGTQLTVL	9.36
ADI-15597 (antibody, V domains shown, IgG) VH: QVQLVQSGGGLVKPGGSLRLSCAGSGFTFSSYTLNWVRQAPGKGLEWVSSISSSSTYIYYADSVKGRFTISRDNAKNSLHLQMNSLRAEDTAVYYCARADYDRSVYHLNWFDPWGQGTLVTVSS VL: QSVLTQPPSVSGAPGQRVTISCTGSSSNIGAGYDVHWYQQLPGAAPKLLIYGNTNRPSGVPDRFSGSKSGTSASLAITGLQADDEADYYCQSYDSSLSGTWVFGGGTKLTVL	8.22
ADI-15621 (antibody, V domains shown, IgG; also called Antibody Number 186) VH: QVQLVQSGPEMKKPGSSVKVSCKPSGGTFSSYSVSWVRQAPGQGLEWMGGIIPIFGSSDYAQKFQGRLTITEDESTKTSYMQLNNLTSDDTAIYFCARDNYYVWTGHYPEFDFWGQGTLVTVSS VL: ETTLTQSPGTLSLSLGETATLSCRASQSVRSDYLAWYQQKPGQAPRLLISGASNRATAIPERFTGSGSGTDFTLTISSLEPADFAVYYCQQYGSTPITFGQGTRLEIK	9.26
